Task for the reader: assign each of the following compounds its reported TGI.
# Tested on: OVCAR-3 ovarian
# protocolText: NCI tumour cell line growth inhibition, 48 h

Report TGI for CC1(C=O)C(=O)CCC2(C)C3CC(=O)OC3CCC12 (centres undefined) please.
> 100 µM

And the next one, COc1ccc(C=C2C(=O)NC(=S)NC2=O)c2ccccc12 ?
75.7 µM

And the next one, CC(C)S(=O)(=O)ON1C(=O)c2ccc(N(C)C)cc2C1=O ?
24.5 µM

And the next one, CCCCCCCCCCCCCCCC[N+](C)(C)Cc1ccc(F)cc1 ?
5.49 µM

And the next one, O=C(O)CCC(=O)N1C/C(=C\c2ccccc2)C(=O)/C(=C/c2ccccc2)C1 ?
5.93 µM

And the next one, COC(=O)CNC(=O)CCSc1nnc(COc2ccc(Cl)cc2)n1-c1ccccc1 ?
> 100 µM

And the next one, CSc1cc(Cl)c(C)cc1S(=O)(=O)NC(=O)Nc1ccc(Cl)cc1 ?
74 µM

And the next one, CNCCC/C=C1\c2cc3c(cc2-c2c1c1cc(OC)c(OC)cc1c(=O)n2C)OCO3 ?
4.12 µM

And the next one, CC(=O)O[C@H]1C(=O)[C@@]2(C)[C@H]([C@H](OC(=O)C3CCCCC3)[C@]3(O)C[C@H](OC(=O)[C@H](O)[C@@H](NC(=O)OC(C)(C)C)c4ccccc4)C(C)=C1C3(C)C)[C@]1(OC(C)=O)CO[C@@H]1C[C@@H]2O ?
0.019 µM

Data provenance: PubChem BioAssay (NCI)
